- assayed.system: T1, recombinant human IGSF8 extracellular domain tagged by a human Fc region (IGSF8-hFc) (human, UniProt Q969P0 28-579, biotin label in Examples 17, 18 and 28 (site not given))
- T1 construct: also called IGSF8-Fc fusion protein; IGSF8-hFc-biotin; not shown: human Fc region
- T1 sequence: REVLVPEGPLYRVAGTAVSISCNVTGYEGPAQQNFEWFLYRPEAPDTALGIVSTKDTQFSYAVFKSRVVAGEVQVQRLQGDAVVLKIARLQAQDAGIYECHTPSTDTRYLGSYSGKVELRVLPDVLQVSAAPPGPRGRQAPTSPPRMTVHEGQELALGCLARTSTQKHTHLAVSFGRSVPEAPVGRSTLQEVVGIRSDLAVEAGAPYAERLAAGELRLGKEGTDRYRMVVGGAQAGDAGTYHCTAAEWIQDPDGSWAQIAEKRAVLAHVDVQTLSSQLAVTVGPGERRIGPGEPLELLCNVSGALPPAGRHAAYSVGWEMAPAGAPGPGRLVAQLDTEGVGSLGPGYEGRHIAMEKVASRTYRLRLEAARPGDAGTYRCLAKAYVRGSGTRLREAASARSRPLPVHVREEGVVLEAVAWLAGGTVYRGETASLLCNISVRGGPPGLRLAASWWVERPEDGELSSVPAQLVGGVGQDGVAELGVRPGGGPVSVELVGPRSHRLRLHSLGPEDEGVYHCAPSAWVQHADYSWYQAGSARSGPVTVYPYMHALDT
- experiment.notes: SPR, Ab captured
# maps each entry to its log10(Kd)
reported.property: log10(Kd) (log10 of the value in nM)

- binder: "L1-05 (antibody, V domains shown) VH: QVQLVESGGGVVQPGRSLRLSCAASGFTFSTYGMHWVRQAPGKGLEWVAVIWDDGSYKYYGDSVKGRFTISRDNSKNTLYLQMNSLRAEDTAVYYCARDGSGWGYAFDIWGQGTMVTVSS VL: DIQLTQSPSSLSASVGDRVTITCQASQDITKGLNWYQHKPGKAPNPLVFDAANLETGVPPRFSATGSGTDFSLTITSLQPEDFATYYCQQYDSFPYTFGQGTRLDIK"
  log10(Kd): 0.79
- binder: "L2VH-R30S (antibody, V domains shown) VH: EVQLVESGGGLEQPGGSLRLSCAGSGFTFSDYAMTWVRQAPGKGLEWVSSISGSGGNTYYADSVKGRFTISRDNSKNTLYLQMNSLRAEDTAIYYCARGEYSSGWPSWFDPWGQGTLVTVSS VL: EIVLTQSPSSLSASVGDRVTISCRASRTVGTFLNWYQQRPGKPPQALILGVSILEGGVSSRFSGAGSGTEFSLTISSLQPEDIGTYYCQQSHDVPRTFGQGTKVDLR"
  log10(Kd): 2.16
- binder: "L1-23 (antibody, V domains shown) VH: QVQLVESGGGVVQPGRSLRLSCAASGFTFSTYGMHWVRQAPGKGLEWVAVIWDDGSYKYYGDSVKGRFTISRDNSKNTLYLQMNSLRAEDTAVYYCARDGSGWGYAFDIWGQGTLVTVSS VL: DIQLTQSPSSLSASVGDRVTITCQASQDIGPWLNWYQHKPGKAPKPLVFGSPNLETGVPSRFSASGSGTDFTLTISSLQPEDFATYYCQQYDSFPYTFGQGTKVEIK"
  log10(Kd): -2.63
- binder: "L1-30 (antibody, V domains shown) VH: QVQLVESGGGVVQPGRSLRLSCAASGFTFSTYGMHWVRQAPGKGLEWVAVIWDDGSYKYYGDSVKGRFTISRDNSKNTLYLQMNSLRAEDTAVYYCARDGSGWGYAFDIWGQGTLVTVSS VL: DIQLTQSPSSLSASVGDRVTITCQASQDIGPWLNWYQHKPGKAPKPLVFGADNLETGVPSRFSASGSGTDFTLTISSLQPEDFATYYCQQYDSFPYTFGQGTKVEIK"
  log10(Kd): -2.19
- binder: "L1-29 (antibody, V domains shown) VH: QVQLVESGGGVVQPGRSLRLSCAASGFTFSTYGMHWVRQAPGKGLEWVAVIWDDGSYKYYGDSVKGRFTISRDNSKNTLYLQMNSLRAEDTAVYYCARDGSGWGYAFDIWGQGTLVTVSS VL: DIQLTQSPSSLSASVGDRVTITCQASQDIGPWLNWYQHKPGKAPKPLVFDAPNLETGVPSRFSASGSGTDFTLTISSLQPEDFATYYCQQYDSFPYTFGQGTKVEIK"
  log10(Kd): -1.95
